testedOn: Transient receptor potential cation channel subfamily V member 1 (Rattus norvegicus)
experimentalProtocol: Antagonist activity at rat TRPV1 expressed in CHO cells assessed as inhibition of calcium uptake
Type: functional, cell-based
Set-up: concentration or dose not given beside the values
assayConditions: concentration not given here
measuredQuantity: inhibition (%)
// units = %; emit number, no label

A selection of reference data follows.
COc1cc(CNC(=S)NC(COC(=O)C(C)(C)C)Cc2ccc(C(C)(C)C)cc2)c(Br)cc1O (stereo not given)
51
COc1cc(CNC(=S)NC(CCc2ccc(C)c(C)c2)COC(=O)C(C)(C)C)c(Cl)cc1O (stereo not given)
45
COc1cc(CNC(=S)NCC(COC(=O)C(C)(C)C)Cc2ccc(C(C)(C)C)cc2)c(Cl)cc1O (stereo not given)
71
COc1cc(CNC(=S)NCC(COC(=O)C(C)(C)C)Cc2ccc(C)c(C)c2)cc(Br)c1O (stereo not given)
70

Here is the next item to consider.
INPUT: Can you share its inhibition? I mean this molecule: COc1cc(CNC(=S)NCC(COC(=O)C(C)(C)C)Cc2ccc(C)c(C)c2)c(Br)cc1O (stereo not given)
OUTPUT: 91

====

This listing pairs compounds with measured pKi.
testedOn: Transient receptor potential cation channel subfamily V member 1 (Rattus norvegicus, UniProt O35433)
Sequence (O35433 whole entry): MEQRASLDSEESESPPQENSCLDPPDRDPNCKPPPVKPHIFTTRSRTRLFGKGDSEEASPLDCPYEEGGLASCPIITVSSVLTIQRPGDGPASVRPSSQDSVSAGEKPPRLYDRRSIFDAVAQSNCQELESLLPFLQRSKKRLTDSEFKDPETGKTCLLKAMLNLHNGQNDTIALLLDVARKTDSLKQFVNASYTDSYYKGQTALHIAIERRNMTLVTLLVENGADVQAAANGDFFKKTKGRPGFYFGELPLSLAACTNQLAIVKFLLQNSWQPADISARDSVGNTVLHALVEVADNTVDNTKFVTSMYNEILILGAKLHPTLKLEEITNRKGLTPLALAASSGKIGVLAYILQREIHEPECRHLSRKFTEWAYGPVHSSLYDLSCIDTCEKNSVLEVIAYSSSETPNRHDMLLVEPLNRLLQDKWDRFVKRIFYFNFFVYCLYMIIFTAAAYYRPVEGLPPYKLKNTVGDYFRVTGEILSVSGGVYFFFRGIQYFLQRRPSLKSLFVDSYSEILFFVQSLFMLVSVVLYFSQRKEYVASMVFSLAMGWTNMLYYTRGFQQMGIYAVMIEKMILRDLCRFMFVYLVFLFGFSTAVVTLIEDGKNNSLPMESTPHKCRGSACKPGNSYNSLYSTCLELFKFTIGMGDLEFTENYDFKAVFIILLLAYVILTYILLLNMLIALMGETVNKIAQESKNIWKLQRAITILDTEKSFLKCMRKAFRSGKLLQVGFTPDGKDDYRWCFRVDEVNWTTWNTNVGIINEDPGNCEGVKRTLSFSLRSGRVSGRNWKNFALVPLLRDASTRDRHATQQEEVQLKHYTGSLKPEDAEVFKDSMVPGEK
experimentalProtocol: Antagonist activity at rat TRPV1 expressed in CHO cells assessed as inhibition of calcium uptake
Type: functional, cell-based
Note on pKi: it is the negative log10 of concentration, concentration in mol/L.

COc1cc(CNC(=S)NCc2ccc(C(C)(C)C)cc2)cc(I)c1O
6.75
COc1cc(CNC(=S)NC(CCc2ccc(C(C)(C)C)cc2)COC(=O)C(C)(C)C)cc(I)c1O (stereo not drawn)
6.28
COc1cc(CNC(=S)NCc2ccc(C(C)(C)C)cc2)cc(Br)c1O
7.31
COc1cc(CNC(=S)NC(CCc2ccc(C)c(C)c2)COC(=O)C(C)(C)C)c(I)cc1O (stereo not drawn)
6.75
COc1cc(CNC(=S)NC(CCc2ccc(C)c(C)c2)COC(=O)C(C)(C)C)cc(I)c1O (stereo not drawn)
6.94
COc1cc(CNC(=S)NCC(COC(=O)C(C)(C)C)Cc2ccc(C)c(C)c2)cc(I)c1O (stereo not drawn)
6.92
COc1cc(CNC(=S)NC(CCc2ccc(C(C)(C)C)cc2)COC(=O)C(C)(C)C)c(Br)cc1O (stereo not drawn)
7.12
COc1cc(CNC(=S)NC(CCc2ccc(C(C)(C)C)cc2)COC(=O)C(C)(C)C)c(I)cc1O (stereo not drawn)
7.16
COc1cc(CNC(=S)NCc2ccc(C(C)(C)C)cc2)c(I)cc1O
6.81
COc1cc(CNC(=S)NCC(COC(=O)C(C)(C)C)Cc2ccc(C(C)(C)C)cc2)c(I)cc1O (stereo not drawn)
7.15

Here is the next item to consider.
INPUT: Can you share its pKi? I mean this compound: COc1cc(CNC(=S)NC(COC(=O)C(C)(C)C)Cc2ccc(C(C)(C)C)cc2)cc(I)c1O (stereo not drawn)
OUTPUT: 6.75

====

testedOn: Transient receptor potential cation channel subfamily V member 1 (Rattus norvegicus) (UniProt O35433)
experimentalProtocol: Antagonist activity at rat TRPV1 expressed in CHO cells assessed as inhibition of calcium uptake
Assay type: functional, cell-based
Parameters: concentration or dose not given beside the values
assayConditions: concentration not given here
Decision: inhibition compared against 40%; not below it gives Fulfilled, below it gives Not fulfilled.

Use these answered entries as a reference point.
COc1cc(CNC(=S)NC(CCc2ccc(C)c(C)c2)COC(=O)C(C)(C)C)cc(Cl)c1O (configuration not stated)
Not fulfilled
COc1cc(CNC(=S)NC(CCc2ccc(C(C)(C)C)cc2)COC(=O)C(C)(C)C)cc(Br)c1O (configuration not stated)
Fulfilled
COc1cc(CNC(=S)NC(COC(=O)C(C)(C)C)Cc2ccc(C(C)(C)C)cc2)c(Cl)cc1O (configuration not stated)
Not fulfilled

INPUT: Is inhibition for COc1cc(CNC(=S)NC(COC(=O)C(C)(C)C)Cc2ccc(C(C)(C)C)cc2)cc(Br)c1O (configuration not stated) at or above 40%?
OUTPUT: Not fulfilled

INPUT: Is inhibition for COc1cc(CNC(=S)NC(CCc2ccc(C)c(C)c2)COC(=O)C(C)(C)C)c(Br)cc1O (configuration not stated) at or above 40%?
OUTPUT: Fulfilled

====

testedOn: Transient receptor potential cation channel subfamily V member 1 (Rattus norvegicus) (UniProt O35433)
experimentalProtocol: Agonist activity at rat TRPV1 expressed in CHO cells assessed as maximal calcium uptake relative to capsaicin
Assay type: functional, cell-based
This listing pairs molecules with measured Activity.
// units = %; emit number, no label

A selection of reference data follows.
COc1cc(CNC(=S)NC(CCc2ccc(C)c(C)c2)COC(=O)C(C)(C)C)cc(Cl)c1O (centres undefined)
88
COc1cc(CNC(=S)NC(COC(=O)C(C)(C)C)Cc2ccc(C(C)(C)C)cc2)c(Cl)cc1O (centres undefined)
94
COc1cc(CNC(=S)NCc2ccc(C(C)(C)C)cc2)cc(Cl)c1O
5

Here is the next item to consider.
INPUT: Can you share its Activity? I mean this molecule: COc1cc(CNC(=S)NCC(COC(=O)C(C)(C)C)Cc2ccc(C)c(C)c2)cc(Br)c1O (centres undefined)
OUTPUT: 29

====

testedOn: UniProt O35433
experimentalProtocol: Displacement of [3H]RTX from rat TRPV1 expressed in CHO cells
Format: cell-based
measuredQuantity: Ki (nM)
// units = nM; emit number, no label

INPUT: Can you share its Ki? I mean this compound: COc1cc(CNC(=S)NC(CCc2ccc(C(C)(C)C)cc2)COC(=O)C(C)(C)C)cc(I)c1O (stereo not drawn)
OUTPUT: 214

INPUT: Can you share its Ki? I mean this compound: COc1cc(CNC(=S)NC(CCc2ccc(C(C)(C)C)cc2)COC(=O)C(C)(C)C)c(I)cc1O (stereo not drawn)
OUTPUT: 79

INPUT: Can you share its Ki? I mean this compound: COc1cc(CNC(=S)NC(COC(=O)C(C)(C)C)Cc2ccc(C(C)(C)C)cc2)cc(I)c1O (stereo not drawn)
OUTPUT: 39.4

====

testedOn: UniProtKB O35433
experimentalProtocol: Agonist activity at rat TRPV1 expressed in CHO cells assessed as maximal calcium uptake
measuredQuantity: pEC50
Note on pEC50: it is the negative log10 of concentration, concentration in mol/L.

COc1cc(CNC(=S)NC(CCc2ccc(C)c(C)c2)COC(=O)C(C)(C)C)ccc1O (centres undefined)
7.83
COc1cc(CNC(=S)NCc2ccc(C(C)(C)C)cc2)ccc1O
8.60
COc1cc(CNC(=S)NC(CCc2ccc(C(C)(C)C)cc2)COC(=O)C(C)(C)C)ccc1O (centres undefined)
7.67

Here is the next item to consider.
INPUT: Can you share its pEC50? I mean this compound: COc1cc(CNC(=S)NC(COC(=O)C(C)(C)C)Cc2ccc(C(C)(C)C)cc2)cc(Cl)c1O (centres undefined)
OUTPUT: 7.22

====

This listing pairs molecules with measured pKi.
testedOn: Transient receptor potential cation channel subfamily V member 1 (Rattus norvegicus)
experimentalProtocol: Displacement of [3H]RTX from rat TRPV1 expressed in CHO cells
Format: cell-based
Note on pKi: it is the negative log10 of concentration, concentration in mol/L.

COc1cc(CNC(=S)NC(CCc2ccc(C)c(C)c2)COC(=O)C(C)(C)C)cc(Cl)c1O (configuration not stated)
7.07
COc1cc(CNC(=S)NCC(COC(=O)C(C)(C)C)Cc2ccc(C(C)(C)C)cc2)c(Cl)cc1O (configuration not stated)
7.91
CCCCCCCCC(=O)NCc1cc(OC)c(O)cc1I
5.88

INPUT: Can you share its pKi? I mean this molecule: COc1cc(CNC(=S)NC(CCc2ccc(C)c(C)c2)COC(=O)C(C)(C)C)cc(I)c1O (configuration not stated)
OUTPUT: 6.90

INPUT: Can you share its pKi? I mean this molecule: COc1cc(CNC(=S)NCC(COC(=O)C(C)(C)C)Cc2ccc(C)c(C)c2)c(Cl)cc1O (configuration not stated)
OUTPUT: 7.62

INPUT: Can you share its pKi? I mean this molecule: COc1cc(CNC(=S)NC(CCc2ccc(C(C)(C)C)cc2)COC(=O)C(C)(C)C)cc(Br)c1O (configuration not stated)
OUTPUT: 6.84

INPUT: Can you share its pKi? I mean this molecule: COc1cc(CNC(=S)NC(CCc2ccc(C(C)(C)C)cc2)COC(=O)C(C)(C)C)cc(Cl)c1O (configuration not stated)
OUTPUT: 6.91

INPUT: Can you share its pKi? I mean this molecule: COc1cc(CNC(=S)NCC(COC(=O)C(C)(C)C)Cc2ccc(C(C)(C)C)cc2)cc(Br)c1O (configuration not stated)
OUTPUT: 7.73

INPUT: Can you share its pKi? I mean this molecule: COc1cc(CNC(=S)NCC(COC(=O)C(C)(C)C)Cc2ccc(C)c(C)c2)cc(Cl)c1O (configuration not stated)
OUTPUT: 7.51

INPUT: Can you share its pKi? I mean this molecule: COc1cc(CNC(=S)NCc2ccc(C(C)(C)C)cc2)cc(I)c1O
OUTPUT: 6.47

INPUT: Can you share its pKi? I mean this molecule: COc1cc(CNC(=S)NC(CCc2ccc(C)c(C)c2)COC(=O)C(C)(C)C)ccc1O (configuration not stated)
OUTPUT: 7.25
